Please go through the items and note down their pIC50.
Biological target: endogenous cellular BACE2 in the Ins1e rat cell line (Rattus norvegicus (Rat), UniProt Q6IE75)
Sequence (Q6IE75 63-514): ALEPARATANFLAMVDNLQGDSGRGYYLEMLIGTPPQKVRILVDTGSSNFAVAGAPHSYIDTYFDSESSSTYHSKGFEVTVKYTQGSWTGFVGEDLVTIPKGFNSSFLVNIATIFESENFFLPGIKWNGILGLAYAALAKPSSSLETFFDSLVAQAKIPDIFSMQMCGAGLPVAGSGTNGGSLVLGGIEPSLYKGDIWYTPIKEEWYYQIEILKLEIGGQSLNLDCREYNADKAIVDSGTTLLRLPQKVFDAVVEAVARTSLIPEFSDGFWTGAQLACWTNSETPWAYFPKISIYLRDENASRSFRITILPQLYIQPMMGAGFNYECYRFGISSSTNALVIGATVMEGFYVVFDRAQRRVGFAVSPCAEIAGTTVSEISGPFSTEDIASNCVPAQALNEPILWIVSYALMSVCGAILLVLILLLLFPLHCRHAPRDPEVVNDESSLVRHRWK
Assay: Assay for BACE inhibition by measuring cellular TMEM27 cleavage (ELISA of shed hTMEM27 from INS-TMEM27 cells)
Conditions: assay a): cellular TMEM27 cleavage, INS-TMEM27 cells (superscript a)
The value called pIC50 is obtained by taking minus log10 of the concentration in mol/L.

Identify pIC50 associated with the compound Cc1nc(C(C)Nc2ccc(F)c([C@@]3(C)N=C(N)N(C)C(=O)C3(C)C)c2)sc1C (stereo partly drawn) [Example 126]
7.59

Dear colleague, please send me the reported pIC50 for CN1C(=O)C(C)(C)[C@@](C)(c2cc(NC3CCOC3)ccc2F)N=C1N (stereo partly drawn) [Example 22] when you can.
8.30

Indicate its recorded pIC50; the compound in question is CN1C(=O)C(C)(C)[C@@](C)(c2cc(Nc3cccc4c3OCC4)ccc2F)N=C1N [Example 157]
6.18

Dear colleague, please send me the reported pIC50 for CN1C(=O)C(C)(C)[C@@](C)(c2cccc(NC(=O)C3(C(F)(F)F)CC3)c2)N=C1N [Example 2] when you can.
7.09

Identify measured pIC50 associated with CN1C(=O)C(C)(C)[C@@](C)(c2cc(NC(=O)C(C)(C)F)ccc2F)N=C1N [Example 16]
8.05

Retrieve pIC50 measured for CN1C(=O)C(C)(C)[C@@](C)(c2cc(NC3CCc4cc(F)ccc43)ccc2F)N=C1N (stereo partly drawn) [Example 35] and print it.
7.08

Identify the reported pIC50 for the following entry. CN1C(=O)C(C)(C)[C@@](C)(c2cc(NC3CCc4cccc(Cl)c43)ccc2F)N=C1N (stereo partly drawn) [Example 49]
6.49

Consider the compound Cc1nc(C(C)Nc2ccc(F)c([C@@]3(C)N=C(N)N(C)C(=O)C3(C)C)c2)c(C(F)(F)F)o1 (stereo partly drawn) [Example 159] and give its recorded pIC50.
7.62

Input Cc1cc(C(C)Nc2ccc(F)c([C@@]3(C)N=C(N)N(C)C(=O)C3(C)C)c2)[nH]n1 (stereo partly drawn) [Example 125] , output reported pIC50.
7.55

Assign pIC50 to the following record: C[C@@]1(c2cccc(NC(=O)C3(C(F)(F)F)CC3)c2)CC(=O)N(CC2CC2)C(N)=N1 [Example 13]
6.72

Could you please provide reported pIC50 for CN1C(=O)C(C)(C)[C@@](C)(c2cc(NC(=O)C3CC3)ccc2F)N=C1N [Example 17] ? Thanks!
6.44

Tell us which pIC50 value is on record for CN1C(=O)C(C)(C)[C@@](C)(c2cc(NC3COc4cc(Cl)ccc43)ccc2F)N=C1N (stereo partly drawn) [Example 133]
7.39

Look up pIC50 of CN1C(=O)C(C)(C)[C@@](C)(c2cc(Nc3ccccn3)ccc2F)N=C1N [Example 105] and report it.
7.92

Input CN1C(=O)C(C)(C)[C@@](C)(c2cc(NC(=O)C3(C(F)(F)F)CCC3)ccc2F)N=C1N [Example 4] , output reported pIC50.
7.07

Name the recorded pIC50 of the compound listed here: CC(Nc1ccc(F)c([C@@]2(C)N=C(N)N(C)C(=O)C2(C)C)c1)c1ccccc1 (stereo partly drawn) [Example 38]
7.32

Using known records, supply pIC50 for CCNc1ccc(F)c([C@@]2(C)N=C(N)N(C)C(=O)C2(C)C)c1 [Example 91]
6.49

Please list pIC50 recorded for the compound CN1C(=O)C(C)(C)[C@@](C)(c2cc(NC3CCc4cc(Cl)ccc43)ccc2F)N=C1N (stereo partly drawn) [Example 29]
7.49

Tell me its pIC50 given CN1C(=O)C(C)(C)[C@@](C)(c2cc(NC3CCOCC3)ccc2F)N=C1N [Example 50] as the entry.
7.66

Check the records and state pIC50 for CC[C@H]1C(=O)N(C)C(N)=N[C@]1(C)c1cccc(NC(=O)C2(C(F)(F)F)CC2)c1 [Example 11]
7.85

For the compound CC(CNc1ccc(F)c([C@@]2(C)N=C(N)N(C)C(=O)C2(C)C)c1)C(F)(F)F (stereo partly drawn) [Example 83] , give its measured pIC50 value.
7.92

Give the reported value of pIC50 for this record: CN1C(=O)C(C)(C)[C@@](C)(c2cc(NCc3ccon3)ccc2F)N=C1N [Example 86]
6.63
